- measurementProtocol: blockers of RIG-like receptor reporter activation – cell-based, Sendai virus stimulus, luciferase, 10K MLSCN set, TLR/RLR signaling modifier project, primary screen (AID 602276);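 further: firefly luciferase from ISG56 promoter only with Renilla not read in this screen; 0% = Sendai virus plus DMSO and 100% = medium plus DMSO without virus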
- experimentalConditions: HEK293 RL24 IRF3 luciferase reporter, at 10 µM, active compounds read high
Calls of active or inactive are those of the source.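 How the source made its calls: active means inhibition at or above 50% at 10 µM; inactive means inhibition below 50%.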
Exercise: state measured inhibition for each of the molecules provided.

molecule=Cc1ccc(C)c(CSc2nnc(CCN)o2)c1 result="6.22% (inactive)"
molecule=COc1cc(C(=O)NCC(=O)OCC(=O)c2ccc[nH]2)cc(OC)c1OC result="13.9% (inactive)"

Working through the 8 molecules below one at a time, give inhibition for each.
1. Cc1cc(OCC(=O)N2CCOCC2)cc2oc(=O)c3ccccc3c12
2. COc1cccc(NC(=O)N2CCC(N3CCCCC3)CC2)c1
3. Cc1nc(SCC(=O)NCc2ccco2)c2c(C)c(C)sc2n1
4. OC(CN1CCOCC1)Cn1c(-c2cccc(Cl)c2)nc2ccccc21 (stereo unspecified)
5. COc1ccc(S(=O)(=O)Nc2ccc(Cl)cn2)c(C)c1C
6. CN(Cc1ccc(-n2cccn2)cc1)C(=O)c1cnn2c1NC(c1ccco1)CC2C(F)(F)F (stereo unspecified)
7. CCCOc1ccccc1NC(=O)c1ccc(N)cc1
8. COc1ccc(CNC(=O)C(c2ccco2)N(Cc2cccs2)C(=O)Cc2cccs2)cc1 (stereo unspecified)

1. -4.13% (inactive)
2. 15.9% (inactive)
3. 17.4% (inactive)
4. 10.2% (inactive)
5. 11.2% (inactive)
6. 8.13% (inactive)
7. 11.3% (inactive)
8. 13.1% (inactive)

Need inhibition of Cc1occc1-c1nnc(SCC(=O)N2CCOCC2)n1Cc1ccco1 , thanks.
8.29% (inactive)

###

- measurementTarget: Alpha-2C adrenergic receptor (Homo sapiens)
- measurementProtocol: compounds altering alpha2C-coupled GIRK flux – cell-based, HEK293 alpha2C/GIRK1/2, thallium flux, primary screen (AID 624);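 further: slope of fluorescence ratio to pre-addition baseline per second over 15 to 24 s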
- experimentalConditions: thallium flux BTC fluorescence, at 10 µM, actives lie on both sides
// bucketize slope: lowest = under 0.005, middle = from 0.005 up to 0.006, highest = 0.006 and over

Some solved entries appear below for comparison.
compound=CCCN(CCC)CCNS(=O)(=O)c1ccc2c(c1)oc(=O)n2C class=lowest
compound=COc1ccccc1OCC(=O)Nc1ccc(S(=O)(=O)Nc2nc(C)cc(C)n2)cc1 class=middle

Lab note: sort CCOCCCN(Cc1cc2cc(C)cc(C)c2[nH]c1=O)C(=O)N(CC)CC into the matching slope band.
middle

Lab note: sort O=C(CN1CCN(Cc2ccc3c(c2)OCO3)CC1)N1CCc2[nH]c3ccc(F)cc3c2C1 into the matching slope band.
lowest

Lab note: sort O=C(Nc1cccc(Cl)c1)N1CCN(c2ncccn2)CC1 into the matching slope band.
lowest

Lab note: sort CCCn1c(=O)c(C(=O)NCc2ccccn2)c(O)c2ccccc21 into the matching slope band.
middle

Lab note: sort O=C(NC1CCCCC1)c1nc2c(nnn2Cc2ccccc2Cl)c(=O)[nH]1 into the matching slope band.
lowest

###

- measurementTarget: Voltage-gated potassium channel subunit beta-2 (Rattus norvegicus) (UniProt P62483)
- Sequence (P62483 whole entry, looked up): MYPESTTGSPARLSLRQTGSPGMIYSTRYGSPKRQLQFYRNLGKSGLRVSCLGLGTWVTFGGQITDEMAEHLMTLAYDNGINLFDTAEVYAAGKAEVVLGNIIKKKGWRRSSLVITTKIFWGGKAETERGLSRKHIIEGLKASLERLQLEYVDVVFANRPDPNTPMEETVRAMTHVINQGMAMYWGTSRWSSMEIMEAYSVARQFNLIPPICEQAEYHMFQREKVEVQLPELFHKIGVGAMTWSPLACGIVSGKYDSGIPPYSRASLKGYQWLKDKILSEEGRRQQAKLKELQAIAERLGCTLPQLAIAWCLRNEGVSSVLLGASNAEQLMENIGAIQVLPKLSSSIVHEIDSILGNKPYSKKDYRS
- measurementProtocol: inhibitors of rat Kvbeta2 reductase activity – biochemical, NADPH fluorescence, primary screen (AID 622);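 further: slope of raw intensity against log time taken from 70 to 1610 s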
- experimentalConditions: recombinant KvBeta, 4-cyanobenzaldehyde reduction, at 10 µM
The source made the active and inactive calls.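 How the source made its calls: active means fluorescence slope higher than the sample average by over 3 SD (cut at about -0.22 in these data, passing the limit was not always enough); inactive means the rest.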
Result category, one only: True for active, False for inactive

Some solved entries appear below for comparison.
molecule=O=C(c1ccc2snnc2c1)N1CCOCC1 class=False
molecule="Cn1c(=O)oc2cc(S(=O)(=O)N3CCCC(C(=O)NCC4COc5ccccc5O4)C3)ccc21 (stereo not drawn)" class=False
molecule=Cc1cc(NCCN2CCOCC2)n2nc(C)c(-c3ccccc3)c2n1 class=False
molecule=CC(C)(C)c1nc(CN2CCOCC2)ccc1O class=False
molecule=COc1ccc(C2(C(=O)Nc3c(C)n(C)n(-c4ccccc4)c3=O)CCCC2)cc1OC class=False

Tell me the recorded outcome of this test for COCCn1cc(C(=O)c2ccccc2OCC(=O)Nc2cc(C)on2)cc(C#N)c1=O .
False

Tell me the recorded outcome of this test for C(/CCc1ccccc1)=N\n1cnnc1 .
False

Tell me the recorded outcome of this test for CCOC(=O)c1c(NC(=O)c2cccs2)sc2c1CCN(C(=O)OCC)C2 .
True

Tell me the recorded outcome of this test for CCOc1ccc2oc(-c3ccccc3)c(C(=O)N3CCN(CCO)CC3)c2c1 .
False

Tell me the recorded outcome of this test for O=C(O)CC(C(=O)Nc1cccc(C(F)(F)F)c1)C1CCCO1 (stereo not drawn) .
False

Tell me the recorded outcome of this test for COc1ccc(C)cc1C(=O)CCC(=O)Nc1ccccc1N1CCOCC1 .
False

Tell me the recorded outcome of this test for Cc1nc(SCC(=O)NCc2ccco2)c2c(C)c(C)sc2n1 .
False

Tell me the recorded outcome of this test for COc1cc2c(cc1OC)CN(Cc1nc3ccsc3c(=O)[nH]1)CC2 .
False

Tell me the recorded outcome of this test for CCOC(=O)C1CCCN(C(=O)c2ccc3c(=O)n(CCOC)c(=S)[nH]c3c2)C1 (stereo not drawn) .
False

Tell me the recorded outcome of this test for CN1C(=O)c2oc3ccccc3c(=O)c2C1c1ccccn1 (stereo not drawn) .
False

Tell me the recorded outcome of this test for Cc1ccc(OC(=O)NC2CCS(=O)(=O)C2)cc1C (stereo not drawn) .
False

// data source = PubChem BioAssay
